ASSAY NOTES: clinical
Assay type: in vivo, human
RUN CONDITIONS: both, human, in vivo
MEASURE: time of maximum plasma concentrations (range)

Solved cases (3 shown):
# COMPOUND, ENDPOINT RESULT
rows = [
    ("C[C@H](CCC(=O)NCC(=O)O)[C@H]1CC[C@H]2[C@@H]3[C@@H](O)C[C@@H]4C[C@H](O)CC[C@]4(C)[C@H]3CC[C@]12C", "6.00 to 20.00 h"),
    ("C[C@H](CCC(=O)NCCS(=O)(=O)O)[C@H]1CC[C@H]2[C@@H]3[C@@H](O)C[C@@H]4C[C@H](O)CC[C@]4(C)[C@H]3CC[C@]12C", "1.50 to 10.00 h"),
    ("O=C(O)CCCc1ccccc1 [PB, sodium phenylbutyrate]", "0.25 to 0.50 h"),
]

Turning to the following compound.
Exercise: Given the entry C[C@H](CCC(=O)O)[C@H]1CC[C@H]2[C@@H]3[C@@H](O)C[C@@H]4C[C@H](O)CC[C@]4(C)[C@H]3CC[C@]12C , report its measured time of maximum plasma concentrations (range).
Key: 0.25 to 20.00 h
